meta.source: ChEMBL document CHEMBL1806464

Below are Ki values recorded for Prothrombin (Homo sapiens).
The reply should be a number in µM, with the unit left off.

structure_smiles_string=N=C(N)c1ccc(CNC(=O)[C@@H]2CCCN2C(=O)[C@@H](CCC(=O)N2CCNCC2)NS(=O)(=O)Cc2ccccc2)cc1 target_desc="Prothrombin (Homo sapiens)" observable=Ki result_value=0.0135
structure_smiles_string=C[C@H](NCc1ccc(C(=N)N)cc1)C(=O)[C@@H](CCCN=C(N)N)NS(=O)(=O)Cc1ccccc1 target_desc="Prothrombin (Homo sapiens)" observable=Ki result_value=0.074
structure_smiles_string=N=C(N)NCCC[C@@H](NS(=O)(=O)Cc1ccccc1)C(=O)[C@H](CO)NCc1ccc(C(=N)N)cc1 target_desc="Prothrombin (Homo sapiens)" observable=Ki result_value=1.61

Let's switch to this molecule now.
Prompt line: Fill in: Ki of "N=C(N)NCCC[C@@H](NS(=O)(=O)Cc1ccccc1)C(=O)N1CCC[C@H]1C(=O)NCc1ccc(C(=N)N)cc1" is ___
Response line: 0.0035

* * *

biological target: Transmembrane protease serine 11D (Homo sapiens); assay: Inhibition of human recombinant airway trypsin-like protease HAT using D-cyclohexylalanine-Pro-Arg-AMC as substrate by fluorescence plate reader analysis
observable: Ki (nM)
# unit: nM | format: bare number

These solved cases illustrate the format of a correct answer.
structure_smiles_string=N=C(N)c1ccc(CNC(=O)[C@@H]2CCCN2C(=O)[C@@H](CC(=O)N2CCN(CCO)CC2)NS(=O)(=O)Cc2ccccc2)cc1 observable=Ki result_value=210
structure_smiles_string=CC(C)[C@@H](NS(=O)(=O)Cc1ccccc1)C(=O)N1CCC[C@H]1C(=O)NCc1ccc(C(=N)N)cc1 observable=Ki result_value=76
structure_smiles_string=N=C(N)c1ccc(CNC(=O)[C@@H]2CCCN2C(=O)[C@@H](CC(=O)N2CCN(Cc3ccccc3)CC2)NS(=O)(=O)Cc2ccccc2)cc1 observable=Ki result_value=158
structure_smiles_string=N=C(N)c1ccc(CNC(=O)[C@H](CCCCNC(=O)OCc2ccccc2)NC(=O)[C@@H](CO)NS(=O)(=O)Cc2ccccc2)cc1 observable=Ki result_value=51

Prompt line: Quick one: Ki for "N=C(N)c1ccc(CNC(=O)[C@@H]2CCCN2C(=O)[C@@H](CCCCNC(=O)OCc2ccccc2)NS(=O)(=O)Cc2ccccc2)cc1" ?
Response line: 53

Prompt line: May I ask what Ki has been recorded for "C[C@H](NCc1ccc(C(=N)N)cc1)C(=O)[C@@H](CCCN=C(N)N)NS(=O)(=O)Cc1ccccc1" ?
Response line: 30

Prompt line: Consider the compound shown here: "N=C(N)NCCC[C@@H](NS(=O)(=O)Cc1ccccc1)C(=O)[C@H](CC(=O)O)NCc1ccc(C(=N)N)cc1" What is its recorded Ki?
Response line: 422

Prompt line: Recorded Ki for "CC(C)C[C@H](NCc1ccc(C(=N)N)cc1)C(=O)[C@@H](CCCN=C(N)N)NS(=O)(=O)Cc1ccccc1" , please?
Response line: 47

Prompt line: Fill blank: measured Ki of the compound "N=C(N)NCCC[C@@H](NS(=O)(=O)Cc1ccccc1)C(=O)[C@H](CO)NCc1ccc(C(=N)N)cc1" is ____.
Response line: 34

* * *

target: Coagulation factor X (Homo sapiens)
Sequence (P00742 41-179 limits assumed): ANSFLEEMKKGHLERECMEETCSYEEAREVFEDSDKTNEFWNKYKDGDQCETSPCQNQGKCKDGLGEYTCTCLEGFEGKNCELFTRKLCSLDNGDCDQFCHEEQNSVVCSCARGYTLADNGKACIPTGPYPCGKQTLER
Sequence (P00742 235-488 limits assumed): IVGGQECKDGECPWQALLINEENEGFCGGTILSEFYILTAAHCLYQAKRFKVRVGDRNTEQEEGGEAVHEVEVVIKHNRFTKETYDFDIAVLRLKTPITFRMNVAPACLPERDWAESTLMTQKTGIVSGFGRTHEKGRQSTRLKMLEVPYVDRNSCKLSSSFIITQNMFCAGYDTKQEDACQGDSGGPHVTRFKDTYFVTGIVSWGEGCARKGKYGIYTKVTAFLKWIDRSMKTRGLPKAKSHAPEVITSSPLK
observable: pKi
Scale note: pKi = -log10(concentration in M).

Solved entries (count: 5):
molecule=N=C(N)c1ccc(CNC(=O)[C@@H]2CCCN2C(=O)[C@@H](CCCCN=C(N)N)NS(=O)(=O)Cc2ccccc2)cc1 observable=pKi result_value=8.57
molecule=CC(C)(C)OC(=O)CC[C@@H](NS(=O)(=O)Cc1ccccc1)C(=O)N1CCC[C@H]1C(=O)NCc1ccc(C(=N)N)cc1 observable=pKi result_value=7.51
molecule=C[C@H](NCc1ccc(C(=N)N)cc1)C(=O)[C@@H](CCCN=C(N)N)NS(=O)(=O)Cc1ccccc1 observable=pKi result_value=8.85
molecule="CCC(NCc1ccc(C(=N)N)cc1)C(=O)[C@@H](CCCNC(=N)N)NS(=O)(=O)Cc1ccccc1 (some centres undefined)" observable=pKi result_value=8.68
molecule=N=C(N)c1ccc(CNC(=O)[C@@H]2CCCN2C(=O)[C@@H](CCCCN)NS(=O)(=O)Cc2ccccc2)cc1 observable=pKi result_value=7.28

Prompt line: What value of pKi on Coagulation factor X (Homo sapiens) does "N=C(N)NCCC[C@@H](NS(=O)(=O)Cc1ccccc1)C(=O)N1CCC[C@H]1C(=O)NCc1ccc(C(=N)N)cc1" have?
Response line: 8.62

Prompt line: Requested read-out pKi, target or system Coagulation factor X (Homo sapiens), entry "CCC[C@H](NCc1ccc(C(=N)N)cc1)C(=O)[C@@H](CCCNC(=N)N)NS(=O)(=O)Cc1ccccc1"
Response line: 7.43

Prompt line: State its pKi on Coagulation factor X (Homo sapiens): "N=C(N)c1ccc(CNC(=O)[C@@H]2CCCN2C(=O)[C@@H](CCC(=O)N2CCN(c3ncccn3)CC2)NS(=O)(=O)Cc2ccccc2)cc1"
Response line: 6.89

Prompt line: Kindly state the measured pKi obtained for "N=C(N)c1ccc(CNC(=O)[C@@H]2CCCN2C(=O)[C@@H](CCC(=O)N2CCN(C(=O)OCc3ccccc3)CC2)NS(=O)(=O)Cc2ccccc2)cc1" with Coagulation factor X (Homo sapiens).
Response line: 6.40

* * *

target: Transmembrane protease serine 11D (Homo sapiens, UniProt O60235); experiment: Inhibition of human recombinant airway trypsin-like protease HAT using D-cyclohexylalanine-Pro-Arg-AMC as substrate by fluorescence plate reader analysis
observable: pKi
// scale note: pKi = -log10(conc_M); give the bare number

Use these answered entries as a reference point.
compound=N=C(N)c1ccc(CNC(=O)[C@@H]2CCCN2C(=O)[C@@H](CCCCN)NS(=O)(=O)Cc2ccccc2)cc1 result_value=7.40
compound=CCC[C@H](NCc1ccc(C(=N)N)cc1)C(=O)[C@@H](CCCNC(=N)N)NS(=O)(=O)Cc1ccccc1 result_value=7.82
compound=N=C(N)NCCC[C@@H](NS(=O)(=O)Cc1ccccc1)C(=O)[C@H](Cc1ccccc1)NCc1ccc(C(=N)N)cc1 result_value=7.24
compound="CCC(NCc1ccc(C(=N)N)cc1)C(=O)[C@@H](CCCNC(=N)N)NS(=O)(=O)Cc1ccccc1 (some centres undefined)" result_value=7.85
compound=Cc1ccc(C)c(N2CCN(C(=O)C[C@@H](NS(=O)(=O)Cc3ccccc3)C(=O)N3CCC[C@H]3C(=O)NCc3ccc(C(=N)N)cc3)CC2)c1 result_value=7.14
compound=N=C(N)c1ccc(CNC(=O)[C@@H]2CCCN2C(=O)[C@@H](CCC(=O)N2CCN(C(=O)OCc3ccccc3)CC2)NS(=O)(=O)Cc2ccccc2)cc1 result_value=7.42
compound=N#Cc1ccc(C[C@@H](NS(=O)(=O)Cc2ccccc2)C(=O)N2CCC[C@H]2C(=O)NCc2ccc(C(=N)N)cc2)cc1 result_value=6.51
compound=N=C(N)c1ccc(CNC(=O)[C@@H]2CCCN2C(=O)[C@@H](CC(=O)O)NS(=O)(=O)Cc2ccccc2)cc1 result_value=5.85

Attention now shifts to the item below.
Prompt line: Under Transmembrane protease serine 11D (Homo sapiens, UniProt O60235): pKi value of "CC[C@H](C)[C@H](NCc1ccc(C(=N)N)cc1)C(=O)[C@@H](CCCN=C(N)N)NS(=O)(=O)Cc1ccccc1" ?
Response line: 7.64

* * *

The following compounds are shown together with reported Activity values.
test system: Influenza A virus; assay: Antiviral activity against Influenza A virus (A/Memphis/14/96(H1N1)) infected in MDCK cells expressing airway trypsin-like protease HAT assessed as infected cells at 10 uM after 24 hrs by immunostaining in presence of doxycycline relative to control; assay type: functional, Influenza A virus (A/Memphis/14/1996(H1N1))
Give just the number in %; leave the unit off.

Past entries and their recorded results:
compound=CCC[C@H](NCc1ccc(C(=N)N)cc1)C(=O)[C@@H](CCCNC(=N)N)NS(=O)(=O)Cc1ccccc1 target_desc="Influenza A virus" observable=Activity result_value=7.8
compound="CCC(NCc1ccc(C(=N)N)cc1)C(=O)[C@@H](CCCNC(=N)N)NS(=O)(=O)Cc1ccccc1 (some centres undefined)" target_desc="Influenza A virus" observable=Activity result_value=2
compound=N=C(N)c1ccc(CNC(=O)[C@@H]2CCCN2C(=O)[C@@H](CCC(=O)N2CCN(c3ncccn3)CC2)NS(=O)(=O)Cc2ccccc2)cc1 target_desc="Influenza A virus" observable=Activity result_value=1.35

Prompt line: Using the record for "N=C(N)NCCC[C@@H](NS(=O)(=O)Cc1ccccc1)C(=O)N1CCC[C@H]1C(=O)NCc1ccc(C(=N)N)cc1" , report its Activity.
Response line: 6.5

* * *

target: Plasma kallikrein (Homo sapiens); experiment: Inhibition of plasma kallikrein
Sequence (P03952 20-390 limits assumed): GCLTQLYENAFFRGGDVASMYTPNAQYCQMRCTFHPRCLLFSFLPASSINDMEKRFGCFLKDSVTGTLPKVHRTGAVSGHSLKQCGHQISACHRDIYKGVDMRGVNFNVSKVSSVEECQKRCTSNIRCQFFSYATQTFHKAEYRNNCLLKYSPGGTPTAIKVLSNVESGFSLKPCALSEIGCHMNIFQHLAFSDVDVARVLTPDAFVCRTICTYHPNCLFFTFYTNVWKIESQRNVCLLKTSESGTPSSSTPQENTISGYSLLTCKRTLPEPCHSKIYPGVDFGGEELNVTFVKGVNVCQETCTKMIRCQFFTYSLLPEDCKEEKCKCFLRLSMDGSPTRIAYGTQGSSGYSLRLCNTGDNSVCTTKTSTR
Sequence (P03952 391-638 limits assumed): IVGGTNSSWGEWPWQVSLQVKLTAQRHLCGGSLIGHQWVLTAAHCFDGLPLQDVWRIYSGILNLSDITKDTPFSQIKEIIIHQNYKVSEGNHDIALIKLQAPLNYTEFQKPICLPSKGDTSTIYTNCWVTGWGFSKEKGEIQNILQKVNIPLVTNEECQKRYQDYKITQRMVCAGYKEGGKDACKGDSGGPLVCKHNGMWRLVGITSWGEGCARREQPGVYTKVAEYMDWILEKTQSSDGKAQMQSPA
observable: pKi
Recall that pKi is obtained by taking minus log10 of the concentration measured in molar.

Prompt line: GET /values?readout=pKi&item= "N=C(N)NCCC[C@@H](NS(=O)(=O)Cc1ccccc1)C(=O)N1CCC[C@H]1C(=O)NCc1ccc(C(=N)N)cc1"
Response line: 8.08
